// pIC50 lookup, one value per entry
# subjectOfTest: Intestinal-type alkaline phosphatase (Homo sapiens)
# Sequence (P09923 whole entry): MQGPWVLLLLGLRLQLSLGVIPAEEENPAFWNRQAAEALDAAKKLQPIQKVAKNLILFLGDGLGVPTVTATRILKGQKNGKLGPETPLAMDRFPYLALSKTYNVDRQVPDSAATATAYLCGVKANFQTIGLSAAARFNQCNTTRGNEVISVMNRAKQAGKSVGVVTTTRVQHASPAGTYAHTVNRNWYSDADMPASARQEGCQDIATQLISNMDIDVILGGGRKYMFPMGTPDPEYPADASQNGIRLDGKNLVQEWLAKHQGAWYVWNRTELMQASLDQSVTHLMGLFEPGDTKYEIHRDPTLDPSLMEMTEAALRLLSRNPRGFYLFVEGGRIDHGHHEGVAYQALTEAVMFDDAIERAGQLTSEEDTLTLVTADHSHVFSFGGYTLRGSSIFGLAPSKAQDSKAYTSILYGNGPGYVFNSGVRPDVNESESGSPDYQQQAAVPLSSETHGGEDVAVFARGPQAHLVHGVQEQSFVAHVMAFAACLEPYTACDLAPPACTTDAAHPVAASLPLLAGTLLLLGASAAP
# procedureText: inhibition of human intestinal alkaline phosphatase – biochemical, dose response (AID 488876)
Note on units: pIC50 is unitless, being -log10 of a concentration expressed in mol/L.

Record request: pIC50 value, item Cc1ccc(/C=C2\SC(=S)N(/N=C/C3C=C([N+](=O)[O-])C=CC3=O)C2=O)o1 (centres undefined)
4.10

Fill in: pIC50 of C#CCOCCOCCOCCNc1nc(N2CCN(C(=O)CCCCCCCCCCNC(=O)[C@H]([C@@H](C)CC)n3cc(CCCCN=C(N)N)nn3)CC2)nc(N2CCN(C(=O)CCCCCCCCCCNC(=O)[C@@H]([C@H](C)O)n3cc(C)nn3)CC2)n1 is ___
4.06

Given O=C1C=CC(/C=C/c2nc(O)c([N+](=O)[O-])c(=O)[nH]2)C=C1O (centres undefined) , state its recorded pIC50.
5.36

Further cases:
What value of pIC50 has been reported for the following compound? CC1NON=C1C(=O)NN=CC1=CC(=O)C(=O)C=C1 (centres undefined)
4.85

----------
# subjectOfTest: UniProt:P09923
# procedureText: inhibition of human intestinal alkaline phosphatase – biochemical, dose response (AID 488876)
pIC50: −log10 of the molar value.
valueKind: pIC50

Recorded pIC50 for O=C(Nn1c(O)csc1=S)C(=O)Nn1c(O)csc1=S , please?
< 4.00

Need pIC50 of C#CCOCCOCCOCCNc1nc(N2CCN(C(=O)CCCCCCCCCCNC(=O)Cn3cc(CCCCCN)nn3)CC2)nc(N2CCN(C(=O)CCCCCCCCCCNC(=O)Cn3cc(C[C@@H](C)O)nn3)CC2)n1 , thanks.
< 4.00

Now look at this entry.
Which pIC50 reading was recorded for the compound Cc1ccc(Cl)c2c1NC(=O)/C2=C1/NC(=S)NC1=O ?
< 4.00

----------
# subjectOfTest: Intestinal-type alkaline phosphatase (Homo sapiens)
# procedureText: inhibition of human intestinal alkaline phosphatase – biochemical, dose response (AID 488876)
valueKind: IC50

Reference set (4 entries):
Which measured IC50 value corresponds to Oc1ccc(C=Nn2c(O)csc2=S)c(O)c1O ?
> 100 µM

Any idea what IC50 was measured for NS(=O)(=O)c1cc(C(=O)NNC2=c3ccccc3=NC2=O)ccc1Cl ?
> 100 µM

Would you mind telling me what IC50 value was observed for Nc1nnc(CC(=O)N/N=C/C2C=C([N+](=O)[O-])C=C(Br)C2=O)s1 (stereo not given) ?
> 100 µM

Consider the molecule shown here: COc1cc(C=CC(=O)CC(=O)C=Cc2ccc(O)cc2)ccc1O [demethoxycurcumin] What is its recorded IC50?
> 100 µM

Please find the next molecule below.
For O=C1C=CC(C=NNC(=S)Nc2ccccc2[N+](=O)[O-])C=C1O (stereo not given) [MLS000417596] , what is its reported IC50?
> 100 µM
